// endpoint IC50 / system human PDE1B (Homo sapiens (Human))
recordedEndpoint: IC50

> print(dat)
                                    compound                     systemundertest       result
 1       O=c1n(Cc2ccc(Cl)cc2)c2sccc2c2ncnn12  human PDE1B (Homo sapiens (Human))  0.1 to 1 µM
 2  COc1ccc(Cn2c(=O)n3ncnc3c3cc(CN4CCSCC4)cnc32)cc1  human PDE1B (Homo sapiens (Human))  0.1 to 1 µM
 3  COc1ccc(Cn2c(=O)n3ncnc3c3c4c(sc32)CN(CC2CCNCC2)CC4)cc1  human PDE1B (Homo sapiens (Human))  0.1 to 1 µM
 4  COc1ccc(Cn2c(=O)n3ncnc3c3cc(CN(C)C4CCOCC4)cnc32)cc1  human PDE1B (Homo sapiens (Human))   1 to 10 µM
 5  COc1ccc(Cn2c(=O)n3ncnc3c3cc(CN4CCOCC4C)cnc32)cc1 (centres unmarked)  human PDE1B (Homo sapiens (Human))  0.1 to 1 µM
 6  COc1ccc(Cn2c(=O)n3ncnc3c3c4c(sc32)N(Cc2cccc(Cl)c2)CCC4)cc1OC  human PDE1B (Homo sapiens (Human))   1 to 10 µM
 7  COc1ccc(Cn2c(=O)n3ncnc3c3cc(N4CCN(S(C)(=O)=O)CC4)cnc32)cc1  human PDE1B (Homo sapiens (Human))  0.1 to 1 µM
 8  COc1ccc(Cn2c(=O)n3ncnc3c3cc(CCNC(=O)OCc4ccccc4)cnc32)cc1  human PDE1B (Homo sapiens (Human))  0.1 to 1 µM
 9  COc1ccc(Cn2c(=O)n3ncnc3c3cc(C(O)C(F)(F)F)cnc32)cc1 (centres unmarked)  human PDE1B (Homo sapiens (Human))  0.1 to 1 µM
10  O=c1n(Cc2ccc(Cl)c(Cl)c2)c2sc3c(c2c2ncnn12)CCOC3  human PDE1B (Homo sapiens (Human))  0.1 to 1 µM
11  COc1ccc(Cn2c(=O)n3ncnc3c3cc(CN(C)C)cnc32)cc1  human PDE1B (Homo sapiens (Human))   1 to 10 µM
12  O=c1n(Cc2cccc(Cl)c2)c2sc(Cc3ccccc3)cc2c2ncnn12  human PDE1B (Homo sapiens (Human))  0.1 to 1 µM
13  O=c1n(Cc2ccccc2)c2sc(Cc3ccccc3)cc2c2ncnn12  human PDE1B (Homo sapiens (Human))  0.1 to 1 µM
14  C[C@@H]1CN(Cc2cnc3c(c2)c2ncnn2c(=O)n3Cc2cc(F)cc(Cl)c2)C[C@H](C)O1  human PDE1B (Homo sapiens (Human))   1 to 10 µM
15  COc1ccc(Cn2c(=O)n3ncnc3c3ccc(CN4Cc5ccccc5C4)nc32)cc1  human PDE1B (Homo sapiens (Human))  0.1 to 1 µM
16  COc1ccc(Cn2c(=O)n3ncnc3c3c4c(sc32)N(Cc2ccc(Cl)cc2)CCC4)cc1OC  human PDE1B (Homo sapiens (Human))   1 to 10 µM
17         O=c1n(Cc2ccccc2Cl)c2sccc2c2ncnn12  human PDE1B (Homo sapiens (Human))   1 to 10 µM
